biological target: Polyamine deacetylase HDAC10 (Homo sapiens, UniProt Q969S8); assay: Inhibition of HDAC10 (unknown origin) assessed as release of fluorogenic AMC pre-incubated for 15 mins followed by addition of trypsin and substrate measured after 60 mins microplate reader analysis
Sequence (Q969S8 whole entry): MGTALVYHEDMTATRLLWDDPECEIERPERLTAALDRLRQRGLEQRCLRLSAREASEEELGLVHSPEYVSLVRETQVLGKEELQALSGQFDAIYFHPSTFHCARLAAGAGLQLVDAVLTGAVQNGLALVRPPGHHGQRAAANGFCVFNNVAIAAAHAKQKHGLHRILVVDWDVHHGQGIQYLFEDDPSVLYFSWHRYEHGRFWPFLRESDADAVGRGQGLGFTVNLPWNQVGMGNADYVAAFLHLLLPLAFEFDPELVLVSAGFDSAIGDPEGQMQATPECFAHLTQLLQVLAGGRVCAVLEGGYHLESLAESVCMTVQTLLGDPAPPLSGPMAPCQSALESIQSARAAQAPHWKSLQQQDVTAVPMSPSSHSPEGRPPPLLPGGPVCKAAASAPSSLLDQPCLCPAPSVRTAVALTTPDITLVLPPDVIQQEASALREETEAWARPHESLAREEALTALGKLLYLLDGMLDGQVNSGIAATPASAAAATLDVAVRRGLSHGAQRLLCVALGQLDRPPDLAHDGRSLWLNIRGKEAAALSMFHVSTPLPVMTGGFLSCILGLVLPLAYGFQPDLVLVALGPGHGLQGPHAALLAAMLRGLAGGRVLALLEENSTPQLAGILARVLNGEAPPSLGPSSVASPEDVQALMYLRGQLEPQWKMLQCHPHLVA
Below, each of the compounds is paired with its reported IC50 value.

[
  {
    "smiles_repr": "COc1ccc(/C=C/C(=O)NO)c(-c2ccc(Br)cc2)c1",
    "endpoint_name": "IC50",
    "assay_value": "> 20 µM"
  }
]

input: Fill in the blank: the reported IC50 of O=C(NO)[C@@H](Cc1ccccc1)n1nnc(-c2ccccc2)c1C#CC1CC1 is ____.
output: > 20 µM

---

biological target: Histone deacetylase 4 (Homo sapiens, UniProt P56524); assay: Inhibition of HDAC4 (unknown origin) assessed as release of fluorogenic AMC pre-incubated for 15 mins followed by addition of trypsin and substrate measured after 60 mins microplate reader analysis
Sequence (P56524 whole entry): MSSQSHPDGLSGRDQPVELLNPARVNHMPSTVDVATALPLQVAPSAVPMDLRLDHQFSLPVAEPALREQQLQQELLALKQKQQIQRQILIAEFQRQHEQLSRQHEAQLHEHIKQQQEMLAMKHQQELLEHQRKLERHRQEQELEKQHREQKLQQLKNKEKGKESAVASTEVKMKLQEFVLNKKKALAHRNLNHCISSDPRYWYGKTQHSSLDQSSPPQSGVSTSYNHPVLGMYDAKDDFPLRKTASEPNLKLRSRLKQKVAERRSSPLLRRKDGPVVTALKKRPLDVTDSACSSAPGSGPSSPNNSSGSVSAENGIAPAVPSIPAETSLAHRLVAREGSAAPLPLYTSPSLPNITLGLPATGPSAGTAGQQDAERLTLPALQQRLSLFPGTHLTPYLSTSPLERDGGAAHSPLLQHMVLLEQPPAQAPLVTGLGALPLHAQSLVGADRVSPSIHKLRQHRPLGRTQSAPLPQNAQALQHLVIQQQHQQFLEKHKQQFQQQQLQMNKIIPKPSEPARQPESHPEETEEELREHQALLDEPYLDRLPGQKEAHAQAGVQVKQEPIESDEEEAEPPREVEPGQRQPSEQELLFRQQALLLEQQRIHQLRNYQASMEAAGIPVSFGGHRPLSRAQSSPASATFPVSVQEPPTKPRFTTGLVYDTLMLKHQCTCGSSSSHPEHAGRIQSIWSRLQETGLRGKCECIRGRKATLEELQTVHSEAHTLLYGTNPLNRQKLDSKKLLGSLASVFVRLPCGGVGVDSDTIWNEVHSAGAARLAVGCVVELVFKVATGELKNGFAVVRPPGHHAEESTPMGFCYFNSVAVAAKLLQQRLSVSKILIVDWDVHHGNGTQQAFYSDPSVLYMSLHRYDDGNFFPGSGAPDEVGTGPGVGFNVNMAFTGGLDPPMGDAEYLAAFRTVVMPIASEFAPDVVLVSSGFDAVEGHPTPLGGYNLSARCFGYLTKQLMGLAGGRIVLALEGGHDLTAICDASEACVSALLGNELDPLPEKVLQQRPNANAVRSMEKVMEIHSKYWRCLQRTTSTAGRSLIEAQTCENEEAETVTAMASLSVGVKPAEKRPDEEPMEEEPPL
endpoint_name: IC50

[
  {
    "smiles_repr": "O=C(NO)c1cccc(-n2cc(CSc3ccccc3)nn2)c1",
    "IC50": "> 100 µM"
  }
]

input: Fill in the blank: the reported IC50 of O=C(NO)[C@@H](Cc1ccccc1)n1nnc(-c2ccccc2)c1C#CC1CC1 is ____.
output: > 20 µM

---

tested on: MCF7; test: Antiproliferative activity against human MCF7 cells assessed as reduction in cell viability incubated for 24 hrs by MTT assay; format: functional, cell-based; settings: MCF7, 24 h
endpoint_name: pIC50
pIC50 here: minus log base 10 of the concentration, concentration in moles per litre.

input: Fill in the blank: the reported pIC50 of COc1ccc(/C=C/C(=O)NO)c(-c2ccc3c(c2)OCO3)c1 is ____.
output: 5.11

---

test system: Jurkat; test: Cytotoxicity against human Jurkat cells assessed as reduction in cell viability measured after 24 hrs by Celltiter-Glo assay; type: functional, cell-based
endpoint_name: pIC50
pIC50 here: minus log base 10 of the concentration, concentration in moles per litre.

input: Fill in the blank: the reported pIC50 of O=C(CCCCCN1C(=O)c2cccc3cccc(c23)C1=O)NO is ____.
output: 5.21
